Compiled record: IC50 values for Ubiquitin carboxyl-terminal hydrolase 7 (Homo sapiens, UniProt Q93009) across several sources.

Solved cases below.
Cn1nc2c(c1[C@H]1Cc3cc(Cl)cc(-c4ncnc5cc(CO)oc45)c3O1)CNCC2    < 1000 nM
CN1CCC(N2CCCc3cc(Cl)cc(-c4ccnc5cc(CN6C(=O)CCC6=O)sc45)c32)CC1    10 to 100 nM
O=C([C@H]1Cc2cc(Cl)cc(-c3ccnc4cc(Cn5cnccc5=O)sc34)c2O1)N1CCNCC1    < 1000 nM
O=C1c2ccccc2-c2nn3c(C4CC4)nnc3nc21    207 nM
C[C@H]1CNC[C@H](C)N1Cc1c(Cl)cc(Cl)cc1-c1ncnc2cc(CN3C(=O)CN(C)C3=O)sc12    < 10 nM
Cc1cc(Cl)cc(-c2ccnc3cc(CN4C(=O)CCC4=O)sc23)c1CC1CNCCO1 (centres unmarked)    10 to 100 nM

Output measured IC50 for this item: `O=C([C@H]1Cc2cc(Cl)cc(-c3ccnc4cc(CO)sc34)c2O1)N1CC[C@H](O)C1`
10000 to 30000 nM

Output measured IC50 for this item: `CN1CC(=O)N(Cc2cc3nccc(-c4cc(Cl)cc5c4N([C@@H]4CNC6(CCC6)C4)CCC5)c3s2)C1=O`
< 10 nM

* * *

Compiled record: pIC50 values for Ubiquitin carboxyl-terminal hydrolase 7 (Homo sapiens, UniProt Q93009) across several sources.
pIC50: −log10 of the molar value.

Solved cases below.
CN1CC[C@H](N2CCCc3cc(Cl)cc(-c4ccnc5cc(CN6C(=O)CCC6=O)sc45)c32)C1    > 8.00
O=C(C1Cc2cc(Cl)cc(-c3ccnc(O)c3)c2O1)N1CCNCC1 (centres unmarked)    5.00 to 6.00
CCC(O)c1cc2nccc(-c3cc(Cl)cc4c3O[C@@H](c3onc5c3CN(CC)CC5)C4)c2s1 (some centres unmarked)    > 6.00
Cc1cc(Cl)cc(-c2ccnc3cc(CN4C(=O)C5CC5C4=O)sc23)c1CC1CNCCO1 (centres unmarked)    > 8.00
O=C([C@@H]1C[C@H]1c1ccccc1)N1CCC(O)(Cn2cnc3cc(Cl)ccc3c2=O)CC1    < 5.00

Print Ubiquitin carboxyl-terminal hydrolase 7 (Homo sapiens, UniProt Q93009) pIC50 for `CCc1c(-c2ccc3[nH]ncc3c2)cnc(N)c1-c1ccc(O)cc1` .
6.01

Print Ubiquitin carboxyl-terminal hydrolase 7 (Homo sapiens, UniProt Q93009) pIC50 for O=C(C1Cc2cc(Cl)cc(-c3ccnc4[nH]c(CO)cc34)c2O1)N1CCNCC1 (centres unmarked) .
> 6.00

Print Ubiquitin carboxyl-terminal hydrolase 7 (Homo sapiens, UniProt Q93009) pIC50 for CC(O)c1cc2nccc(-c3cc(Cl)cc4c3O[C@@H](C(=O)N3CCNCC3)C4)c2s1 (some centres unmarked) .
> 6.00

Print Ubiquitin carboxyl-terminal hydrolase 7 (Homo sapiens, UniProt Q93009) pIC50 for C[C@@H]1CN(Cc2c(Cl)cc(Cl)cc2-c2ncnc3cc(CN4C(=O)C5CC5C4=O)sc23)[C@@H](C)CN1 (some centres unmarked) .
> 8.00

Print Ubiquitin carboxyl-terminal hydrolase 7 (Homo sapiens, UniProt Q93009) pIC50 for O=C(C1Cc2cc(Cl)cc(-c3ccnc(NCc4ccccc4)c3)c2O1)N1CCNCC1 (centres unmarked) .
5.00 to 6.00

Print Ubiquitin carboxyl-terminal hydrolase 7 (Homo sapiens, UniProt Q93009) pIC50 for `O=C([C@H]1Cc2cc(Cl)cc(-c3ccnc4cc(CN5C(=O)CNC5=O)sc34)c2O1)N1CCNCC1` .
> 6.00

Print Ubiquitin carboxyl-terminal hydrolase 7 (Homo sapiens, UniProt Q93009) pIC50 for Cc1cc(Cl)cc(-c2ncnc3cc(CN4C(=O)C5CC5C4=O)sc23)c1C[C@H]1CNCC(C)(C)O1 (some centres unmarked) .
7.00 to 8.00

Print Ubiquitin carboxyl-terminal hydrolase 7 (Homo sapiens, UniProt Q93009) pIC50 for Cc1cc(Cl)cc(-c2ncnc3cc(CN4C(=O)CCC45CC5)sc23)c1CC1CNCC(C)(C)O1 (centres unmarked) .
7.00 to 8.00

Print Ubiquitin carboxyl-terminal hydrolase 7 (Homo sapiens, UniProt Q93009) pIC50 for `Cc1nn(-c2ccccc2)c2c1CN(C#N)C2` .
4.52 to 5.00

Print Ubiquitin carboxyl-terminal hydrolase 7 (Homo sapiens, UniProt Q93009) pIC50 for `CC1(C)C[C@H](N2CCCc3cc(C#N)cc(-c4ccnc5cc(Cn6c(=O)ccn(CC(F)(F)F)c6=O)sc45)c32)CN1` .
> 8.00

Print Ubiquitin carboxyl-terminal hydrolase 7 (Homo sapiens, UniProt Q93009) pIC50 for `N#CN1Cc2c(-c3ccccc3)nn(Cc3ccccc3)c2C1` .
4.52 to 5.00

Print Ubiquitin carboxyl-terminal hydrolase 7 (Homo sapiens, UniProt Q93009) pIC50 for `Cc1cc(Cl)cc(-c2ncnc3cc(Cn4c(=O)ccn(CC(F)(F)F)c4=O)sc23)c1CN1C[C@@H](C)NC[C@@H]1C` .
> 8.00

* * *

Compiled record: IC50 values for Ubiquitin carboxyl-terminal hydrolase 7 (Homo sapiens, UniProt Q93009) across several sources.

Solved cases below.
Cc1nnc2nc3c(nn12)C(=O)c1ccccc1-3    16.7 µM
CCC(O)c1cc2nccc(-c3cc(Cl)cc4c3O[C@@H](c3[nH]nc5c3CNCC5)C4)c2s1 (some centres unmarked)    < 1 µM
Cc1cc(Cl)cc(-c2ccnc3cc(CN4C(=O)C5CC5C4=O)sc23)c1C[C@@H]1CNCC(C)(C)O1 (some centres unmarked)    < 0.01 µM
CC1(C)C2C(=O)N(Cc3cc4nccc(-c5cc(C#N)cc6c5N([C@@H]5CN[C@@](C)(CO)C5)CCO6)c4s3)C(=O)C21 (some centres unmarked)    < 0.01 µM
CC(=O)N1CCC(O)(Cn2cnc3cc(Cl)ccc3c2=O)CC1    > 10 µM

Print Ubiquitin carboxyl-terminal hydrolase 7 (Homo sapiens, UniProt Q93009) IC50 for `Cc1cc(Cl)cc(-c2ccnc3cc(CN4C(=O)CCC4=O)sc23)c1CN1C[C@@H](C)N[C@H](C)C1` .
< 0.01 µM

Print Ubiquitin carboxyl-terminal hydrolase 7 (Homo sapiens, UniProt Q93009) IC50 for Cc1cc(Cl)cc(-c2ncnc3cc(CN4C(=O)CCN(C)C4=O)sc23)c1CC1CNCC2(COC2)O1 (centres unmarked) .
< 0.01 µM

Print Ubiquitin carboxyl-terminal hydrolase 7 (Homo sapiens, UniProt Q93009) IC50 for C[C@]1(CO)C[C@H](N2CCCc3cc(C#N)cc(-c4ccnc5cc(CN6C(=O)C7CC7C6=O)sc45)c32)CN1 (some centres unmarked) .
< 0.01 µM

* * *

Compiled record: IC50 values for Ubiquitin carboxyl-terminal hydrolase 7 (Homo sapiens) across several sources.

Solved cases below.
Cc1cc(Cl)cc(-c2ncnc3cc(CN4C(=O)[C@H]5CCCN5C4=O)sc23)c1CN1[C@@H](C)CNC[C@@H]1C    < 10 nM
COCCn1ccc(=O)n(Cc2cc3nccc(-c4cc(Cl)cc5c4N([C@@H]4CCNC4)CCC5)c3s2)c1=O    < 10 nM
COc1cc(-n2cccn2)ccc1-c1n[nH]c2c1CN(C#N)C2    < 10000 nM
CNC(=O)c1ccc(-c2n[nH]c3c2CN(C#N)C3)cn1    < 10000 nM
O=C(C1Cc2cc(Cl)cc(-c3ccnc4[nH]ccc34)c2O1)N1CCC(N2CCCCC2)CC1 (centres unmarked)    1000 to 10000 nM
O=C1CCC(=O)N1Cc1cc2nccc(-c3cc(Cl)cc4c3N(C3CC5(CCCN5)C3)CCC4)c2s1 (centres unmarked)    10 to 100 nM

Proceeding to the next compound to report its IC50.
Print Ubiquitin carboxyl-terminal hydrolase 7 (Homo sapiens) IC50 for Cc1cc(Cl)cc(-c2ncnc3cc(CN4C(=O)NC(C)C4=O)sc23)c1C[C@@H]1CNCCO1 (some centres unmarked) .
< 10 nM

* * *

Compiled record: pIC50 values for Ubiquitin carboxyl-terminal hydrolase 7 (Homo sapiens, UniProt Q93009) across several sources.
pIC50: −log10 of the molar value.

CC(C)N1CCc2noc([C@H]3Cc4cc(Cl)cc(-c5ccnc6ccsc56)c4O3)c2C1    > 6.00

Print Ubiquitin carboxyl-terminal hydrolase 7 (Homo sapiens, UniProt Q93009) pIC50 for `O=C1CCC(=O)N1Cc1cc2nccc(-c3cc(Cl)cc4c3N([C@@H]3CN(CCF)C5(CCC5)C3)CCC4)c2s1` .
> 8.00

Print Ubiquitin carboxyl-terminal hydrolase 7 (Homo sapiens, UniProt Q93009) pIC50 for `O=C(CCc1ccc2c(Cl)c3c(nc2c1)CCCC3)NCCC(=O)N1CCC(O)(Cn2cnc3cc(Cl)ccc3c2=O)CC1` .
< 5.00

Print Ubiquitin carboxyl-terminal hydrolase 7 (Homo sapiens, UniProt Q93009) pIC50 for `Cn1cc(C(=O)CCl)cc1C(=O)NCCCCC(=O)N1CCC(O)(Cn2cnc3cc(Cl)ccc3c2=O)CC1` .
5.00 to 6.00

Print Ubiquitin carboxyl-terminal hydrolase 7 (Homo sapiens, UniProt Q93009) pIC50 for O=C1NC(=O)C(c2cc3nccc(-c4cc(Cl)cc5c4O[C@@H](C(=O)N4CCNCC4)C5)c3s2)N1 (stereo partly shown) .
> 6.00

Print Ubiquitin carboxyl-terminal hydrolase 7 (Homo sapiens, UniProt Q93009) pIC50 for `Cc1cc(Cl)cc(-c2ccnc3cc(CN4C(=O)CCC4=O)sc23)c1CN1C[C@@H](C)NC[C@@H]1C` .
> 8.00

Print Ubiquitin carboxyl-terminal hydrolase 7 (Homo sapiens, UniProt Q93009) pIC50 for `O=C1CCCN1Cc1cc2nccc(-c3cc(Cl)cc4c3O[C@@H](C(=O)N3CCNCC3)C4)c2s1` .
> 6.00
